# assayed system: Gelatinase (MMP-2) (Homo sapiens, UniProt P08253)
# Sequence (P08253 110-660): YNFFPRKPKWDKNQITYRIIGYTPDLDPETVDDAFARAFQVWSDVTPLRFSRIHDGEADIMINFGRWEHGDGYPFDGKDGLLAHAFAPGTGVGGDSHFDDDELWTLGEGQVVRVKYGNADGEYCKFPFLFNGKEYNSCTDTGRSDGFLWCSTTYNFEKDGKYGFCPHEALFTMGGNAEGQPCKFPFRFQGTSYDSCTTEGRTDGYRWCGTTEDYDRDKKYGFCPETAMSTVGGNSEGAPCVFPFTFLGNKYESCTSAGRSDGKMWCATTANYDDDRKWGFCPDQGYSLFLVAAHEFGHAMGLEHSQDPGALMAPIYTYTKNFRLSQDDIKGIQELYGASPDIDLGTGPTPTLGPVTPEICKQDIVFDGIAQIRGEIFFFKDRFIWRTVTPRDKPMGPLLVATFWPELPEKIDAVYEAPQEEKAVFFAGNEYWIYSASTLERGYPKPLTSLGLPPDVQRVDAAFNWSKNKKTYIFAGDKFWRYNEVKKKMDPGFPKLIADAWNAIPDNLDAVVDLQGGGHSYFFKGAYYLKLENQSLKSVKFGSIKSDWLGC
# assay method text: Gelatinase (MMP-2) inhibitory activity, fluorogenic peptide substrate assay
# Format: biochemical
# test context: substrate 5 μM, 60 min preincubation, 20-25° C.; read-out: MMP2 IC50
reported property: IC50

Sample records with IC50:
- CC(C)CCN([C@H](Cc1ccc(OCc2ccccc2)cc1)C(=O)NO)S(=O)(=O)c1ccc2ccccc2c1 [Example 25]: 1.96 µM
- Cc1ccc(Nc2ccc3cc(S(=O)(=O)N(Cc4ccccc4)[C@@H](C(=O)NO)C(C)C)ccc3c2)cc1 [Example 43]: > 0.3 µM

Then there is this molecule:
Entry CC(C)CCN([C@@H](C(=O)NO)C1CCN(C(=O)OC(C)(C)C)CC1)S(=O)(=O)c1ccc2ccccc2c1 [Example 82] — recorded IC50 = < 0.0003 µM

Data credit: patent US8841291B2
